target: CDK6/Cyclin D1 (Homo sapiens); experiment: NanoBRET live-cell target engagement, NanoLuc-CDK6/Cyclin D1 in HEK-293; assay type: binding; settings: CDK6/D1; experiment 2
Sequence (Q00534 whole entry): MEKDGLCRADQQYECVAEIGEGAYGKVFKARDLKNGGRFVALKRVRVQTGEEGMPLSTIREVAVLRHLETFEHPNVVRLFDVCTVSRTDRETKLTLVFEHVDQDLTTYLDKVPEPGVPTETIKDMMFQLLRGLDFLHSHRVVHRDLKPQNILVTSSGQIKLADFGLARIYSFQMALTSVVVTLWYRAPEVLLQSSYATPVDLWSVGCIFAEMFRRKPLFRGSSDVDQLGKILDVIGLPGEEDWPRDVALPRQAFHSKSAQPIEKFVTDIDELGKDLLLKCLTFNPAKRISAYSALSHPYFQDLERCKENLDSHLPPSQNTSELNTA
Sequence (P24385 whole entry partner): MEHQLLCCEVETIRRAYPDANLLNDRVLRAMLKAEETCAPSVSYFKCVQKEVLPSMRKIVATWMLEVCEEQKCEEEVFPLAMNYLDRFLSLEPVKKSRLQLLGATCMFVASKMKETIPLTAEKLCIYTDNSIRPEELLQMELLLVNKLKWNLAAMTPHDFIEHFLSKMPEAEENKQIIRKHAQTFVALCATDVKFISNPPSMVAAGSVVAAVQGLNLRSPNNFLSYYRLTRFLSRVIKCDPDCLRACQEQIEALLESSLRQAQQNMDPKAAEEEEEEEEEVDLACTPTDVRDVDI
Reported endpoint: Inhibition at 10µM (%)

compound=CNc1nc(C)c(-c2nc(Nc3cccc(S(N)(=O)=O)c3)ncc2F)s1 observed_value=99.3
compound="CC(C)c1cnn2c(NCc3ccccc3-n3cccn3)nc(OC3CCCNC3)nc12 (stereo not drawn)" observed_value=23.6
compound="CCn1cnc2c(Nc3cccc(Cl)c3)nc(N[C@@H]3CCCC[C@@H]3N)nc21 [CGP74514A]" observed_value=66.5
compound="CN1CCC(c2c(O)cc(O)c3c(=O)cc(-c4ccccc4Cl)oc23)C1CO (stereo not drawn)" observed_value=87.7
compound=CC(C)c1c2cc(-c3ccnc(N[C@H]4CC[C@H](NC5CCOCC5)CC4)n3)ccc2nn1C observed_value=96.3
compound=CS(=O)(=O)N1CCC(NC(=O)c2[nH]ncc2NC(=O)c2c(Cl)cccc2Cl)CC1 observed_value=99.9
